- assay-overview: Inhibition of Mycobacterium tuberculosis Rv3588c beta-carbonic anhydrase by stopped flow assay
Kindly supply the reported pKi values for the records listed here.
Answers are plain numbers, as −log10 of the molar value.

Would you please look over these solved cases?
molecular-string	pKi
O=C(/C=C/c1cccc(O)c1)C[C@@H]1O[C@H](CO)[C@@H](O)[C@H](O)[C@H]1O	6.62
O=C(/C=C/c1ccc(O)cc1)C[C@@H]1O[C@H](CO)[C@H](O)[C@H](O)[C@H]1O	6.03
O=C(/C=C/c1cccc(O)c1)C[C@@H]1O[C@H](CO)[C@H](O)[C@H](O)[C@H]1O	6.29
CC(=O)OC[C@H]1O[C@@H](CC(=O)/C=C/c2ccc(O)cc2)[C@H](OC(C)=O)[C@@H](OC(C)=O)[C@@H]1OC(C)=O	6.46
O=C(/C=C/c1ccc(O)cc1)C[C@@H]1O[C@H](CO)[C@@H](O)[C@H](O)[C@H]1O	6.89

// each listed molecule needs a value for pKi
1. CC(=O)OC[C@H]1O[C@@H](CC(=O)/C=C/c2cccc(O)c2)[C@H](OC(C)=O)[C@@H](OC(C)=O)[C@H]1OC(C)=O
2. CC(=O)OC[C@H]1O[C@@H](CC(=O)/C=C/c2ccc(O)cc2)[C@H](OC(C)=O)[C@@H](OC(C)=O)[C@H]1OC(C)=O
3. CC(=O)OC[C@H]1O[C@@H](CC(=O)/C=C/c2cccc(O)c2)[C@H](OC(C)=O)[C@@H](OC(C)=O)[C@@H]1OC(C)=O

6.06
5.94
6.19

----------
- assay-overview: Inhibition of Mycobacterium tuberculosis Rv1284 beta-carbonic anhydrase by stopped flow assay
Please respond with reported log10 Ki for every item in the list.
// do not treat as linear: log10 of Ki, unit µM

molecular-string	log10 Ki
CC(=O)OC[C@H]1O[C@@H](CC(=O)/C=C/c2ccc(O)cc2)[C@H](OC(C)=O)[C@@H](OC(C)=O)[C@H]1OC(C)=O	0.65
O=C(/C=C/c1ccc(O)cc1)C[C@@H]1O[C@H](CO)[C@@H](O)[C@H](O)[C@H]1O	-0.03
CC(=O)OC[C@H]1O[C@@H](CC(=O)/C=C/c2ccc(O)cc2)[C@H](OC(C)=O)[C@@H](OC(C)=O)[C@@H]1OC(C)=O	0.46

I have 5 molecules here; please give me log10 Ki for each one.
1. O=C(/C=C/c1ccc(O)cc1)C[C@@H]1O[C@H](CO)[C@H](O)[C@H](O)[C@H]1O
2. CC(=O)OC[C@H]1O[C@@H](CC(=O)/C=C/c2cccc(O)c2)[C@H](OC(C)=O)[C@@H](OC(C)=O)[C@@H]1OC(C)=O
3. CC(=O)OC[C@H]1O[C@@H](CC(=O)/C=C/c2cccc(O)c2)[C@H](OC(C)=O)[C@@H](OC(C)=O)[C@H]1OC(C)=O
4. Oc1ccccc1
5. O=C(/C=C/c1cccc(O)c1)C[C@@H]1O[C@H](CO)[C@H](O)[C@H](O)[C@H]1O

[0.65, 0.32, 0.58, 1.81, 0.06]

Fill in the blank: the reported log10 Ki of O=C(/C=C/c1cccc(O)c1)C[C@@H]1O[C@H](CO)[C@@H](O)[C@H](O)[C@H]1O is ____.
-0.85

----------
- assay-overview: Inhibition of Mycobacterium tuberculosis Rv3273 beta-carbonic anhydrase by stopped flow assay
property: Ki

molecular-string	property	reported-value
O=C(/C=C/c1ccc(O)cc1)C[C@@H]1O[C@H](CO)[C@@H](O)[C@H](O)[C@H]1O	Ki	4.13 µM

I need Ki for every entry listed below, if you could help.
1. CC(=O)OC[C@H]1O[C@@H](CC(=O)/C=C/c2ccc(O)cc2)[C@H](OC(C)=O)[C@@H](OC(C)=O)[C@@H]1OC(C)=O
2. O=C(/C=C/c1cccc(O)c1)C[C@@H]1O[C@H](CO)[C@H](O)[C@H](O)[C@H]1O
3. O=C(/C=C/c1cccc(O)c1)C[C@@H]1O[C@H](CO)[C@@H](O)[C@H](O)[C@H]1O
4. CC(=O)OC[C@H]1O[C@@H](CC(=O)/C=C/c2ccc(O)cc2)[C@H](OC(C)=O)[C@@H](OC(C)=O)[C@H]1OC(C)=O
5. CC(=O)OC[C@H]1O[C@@H](CC(=O)/C=C/c2cccc(O)c2)[C@H](OC(C)=O)[C@@H](OC(C)=O)[C@@H]1OC(C)=O
6. O=C(/C=C/c1ccc(O)cc1)C[C@@H]1O[C@H](CO)[C@H](O)[C@H](O)[C@H]1O
7. Oc1ccccc1
8. CC(=O)OC[C@H]1O[C@@H](CC(=O)/C=C/c2cccc(O)c2)[C@H](OC(C)=O)[C@@H](OC(C)=O)[C@H]1OC(C)=O

13.1 µM
3.25 µM
6.21 µM
12 µM
19 µM
4.13 µM
79 µM
15.6 µM
